MEASUREMENT DESCRIPTION: PAX8 transcriptional activity inhibition in RMG-I – RMG-I cells, luciferase, single concentration, primary screen (AID 652154);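 also: luciferase light reporting Pax8 driven TPO promoter activity; plate controls were median of neutral control wells for no effect and mitoxantrone controls for full effect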
CONDITION PARAMETERS: RMG-I TPO-luciferase reporter, SteadyGlo, 24 h; at 12.6 µM; stronger effect = higher value
About 4,200 (1.2%) of roughly 360,000 compounds were called active. This is one part of a sample in which actives are shown more often than they occur.
Please provide measured inhibition for the entries that follow.
Provide the reading as a plain figure in %.

Item under review: C[C@H]1CCCCO[C@H](CN(C)Cc2ccccc2)[C@@H](C)CN([C@@H](C)CO)C(=O)c2cc(NC(=O)NC3CCCCC3)ccc2O1 . Reported inhibition? 5.95

How about this compound: C[C@@H]1ON(C)[C@H]2C[C@H]3c4cc(N5CCOCC5)ccc4CCN3C[C@@H]12 -4.88

Moving on to O=C(NC1CCCCC1)N[C@H]1CC[C@H](CCNS(=O)(=O)c2ccc(F)cc2)O[C@H]1CO 1.61

What about C[C@@H]1CN([C@H](C)CO)C(=O)c2cc(NC(=O)Nc3ccc(F)cc3)ccc2O[C@@H](C)CCCCO[C@H]1CN(C)Cc1ccc(Cl)c(Cl)c1 ? 77.5

Here is the next compound: CCCCc1c(-c2ccc(Cl)cc2)ncn1CCc1ccccc1OC 33.1

Now consider O=c1oc2ccccc2cc1-c1cn(-c2ccccc2)c(=S)[nH]1 and answer again. 62.6

Queued: CN(C)C(=O)[C@H]1[C@H](CO)[C@H]2Cn3c(ccc(-c4ccc(F)cc4)c3=O)[C@H]2N1C(=O)c1ccccn1 -7.59

// query: CCOC(=O)c1c(C)[nH]c(C)c1S(=O)(=O)NCCCc1ccco1 -4.09

Note, next up: C[C@@H]1CCCCO[C@H](CN(C)Cc2ccc(Cl)c(Cl)c2)[C@@H](C)CN([C@@H](C)CO)C(=O)c2cc(NC(=O)Nc3ccccc3)ccc2O1 93.9

Same for CC(=O)N(C)C[C@@H]1Oc2cc(-c3cccnc3)ccc2S(=O)(=O)N([C@H](C)CO)C[C@H]1C -6.51

// query: CC(C)NC(=O)N[C@H]1CC[C@@H](CC(=O)NCc2ccc(Oc3ccccc3)cc2)O[C@@H]1CO -20.9

One more compound: CCC(=O)Nc1ccc2c(c1)OC[C@@H](C)N(Cc1ccccc1OC)C[C@H](C)[C@H](OC)CN(C)C2=O -6.79

Also, CCCCc1c(-c2ccc(Br)cc2)ncn1CCc1ccccc1OC please. 74

CCCCCc1c(-c2cccc(Br)c2)ncn1CCc1ccccc1OC , same question. 9.05

Also need CN1C[C@H](O)COC[C@H]2O[C@H](CC(=O)NC3CCC3)CC[C@@H]21 , thanks. -17.3

Queued: O=C(Nc1cccc(NC(=O)c2ccccc2[N+](=O)[O-])c1)c1ccccc1Cl -26.3

Again, but for CN(C)C(=O)c1cccc(-c2ccc([C@H]3[C@@H](CO)N4C(=O)CN(C(=O)C5CC5)C[C@@H]34)cc2)c1 -11.3

Continue with Cc1onc(NC(=O)c2ccc([N+](=O)[O-])o2)c1Br 12.3

What do you have for COc1cccc(-c2ccc([C@@H]3[C@@H](CO)N(C(=O)c4ccccn4)[C@H]3C#N)cc2)c1 ? -77.2

Queued: COc1ccc([Si](C)(C)[C@@H]2[C@@H](CCO)O[C@]3(C(=O)N(Cc4cccc(N5CCCCC5=O)c4)c4ccccc43)[C@H]2C)cc1 3.33

Then COc1ccc2c3c(n(C)c2c1)[C@@H](CO)N(Cc1ccncc1)CC31CN(C(=O)C2CCC2)C1 ? 7.29

###

MEASUREMENT DESCRIPTION: PAX8 transcriptional activity inhibition in RMG-I – RMG-I cells, luciferase, single concentration, primary screen (AID 652154);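 also: luciferase light reporting Pax8 driven TPO promoter activity; plate controls were median of neutral control wells for no effect and mitoxantrone controls for full effect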
CONDITION PARAMETERS: RMG-I TPO-luciferase reporter, SteadyGlo, 24 h; at 12.6 µM; stronger effect = higher value
The whole screen tested about 360,000 compounds, of which about 4,200 (1.2%) were called active. For the sample, actives were picked, then their nearest neighbours and some compounds at random.
MEASURE: inhibition (%)
Please state the figure in %; there is no need to write the unit.

// returns reported inhibition for input Cc1ccc(S(=O)(=O)Nc2ccc3c(c2)C(=O)N([C@@H](C)CO)C[C@@H](C)[C@@H](CN(C)Cc2ccc(C(F)(F)F)cc2)OCCCC[C@@H](C)O3)cc1 105

What do you have for Cc1ccc(S(=O)(=O)Nc2ccc3c(c2)C(=O)N([C@@H](C)CO)C[C@@H](C)[C@H](CN(C)Cc2ccc(Cl)c(Cl)c2)OCCCC[C@@H](C)O3)cc1 ? 75.8

Cool, now Cc1ccc(S(=O)(=O)Nc2ccc3c(c2)C(=O)N([C@H](C)CO)C[C@H](C)[C@@H](CN(C)Cc2ccccc2)OCCCC[C@H](C)O3)cc1 -7.59

Follow-up item: COc1ccccc1-c1ccc2c(c1)[C@H]1[C@H](CCN1S(=O)(=O)c1ccccc1)[C@@H](CO)N2 48.7

Try COc1ccc(S(=O)(=O)Nc2ccc3c(c2)C(=O)N([C@@H](C)CO)C[C@H](C)[C@H](CN(C)Cc2ccc(C(F)(F)F)cc2)OCCCC[C@@H](C)O3)cc1 next. 94.8

Okay, and CC(=O)Nc1c2c(nn1-c1cccc(C)c1)CSC2 ? 13.4

// next record Cc1cccc(-n2ncc(Cl)c(Cl)c2=O)c1 99.9

And for O=C(Nc1c(Cl)c(C2CC2)nn1-c1ccccc1)C(Cl)(Cl)Cl ? 12.8

Could you do the same for Cc1ccc(S(=O)(=O)Nc2ccc3c(c2)C(=O)N([C@H](C)CO)C[C@@H](C)[C@H](CN(C)Cc2ccccc2)OCCCC[C@H](C)O3)cc1 , please? 45.2

Again, but for COc1ccc(S(=O)(=O)Nc2ccc3c(c2)C(=O)N([C@@H](C)CO)C[C@@H](C)[C@H](CN(C)Cc2ccc(C(F)(F)F)cc2)OCCCC[C@@H](C)O3)cc1 27.5

And for Cc1ccc(S(=O)(=O)NC(C(=O)N2CCOCCOCCOCCOCC2)c2ccccc2)cc1 (stereo not drawn) ? 5.5

Now give it for COc1ccc(CN(C)C[C@@H]2OCCCC[C@@H](C)Oc3ccc(NS(=O)(=O)c4ccc(F)cc4)cc3C(=O)N([C@@H](C)CO)C[C@H]2C)cc1 too. -7.37

Try the molecule C[C@@H]1CCCCO[C@@H](CN(C)Cc2ccc(C(F)(F)F)cc2)[C@H](C)CN([C@H](C)CO)C(=O)c2cc(NS(=O)(=O)c3ccc(F)cc3)ccc2O1 104

###

MEASUREMENT DESCRIPTION: PAX8 transcriptional activity inhibition in RMG-I – RMG-I cells, luciferase, single concentration, primary screen (AID 652154);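 also: luciferase light reporting Pax8 driven TPO promoter activity; plate controls were median of neutral control wells for no effect and mitoxantrone controls for full effect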
CONDITION PARAMETERS: RMG-I TPO-luciferase reporter, SteadyGlo, 24 h; at 12.6 µM
About 4,200 (1.2%) of roughly 360,000 compounds were called active.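 Rule for the calls: active = mean replicate inhibition at least 60% with every replicate also reaching 60%; inconclusive = only one of the two criteria is met; inactive = mean below 60% and not all replicates reaching 60%.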 For the sample, actives were picked, then their nearest neighbours and some compounds at random.
In this exercise, the only acceptable responses are 1.0 = active, 0.0 = inactive

Each compound tested received a call. Report the one for COc1ccccc1CCn1cnc(-c2ccccc2)c1C(C)C . 0.0

Can you check O=C(Cc1c[nH]c2ccccc12)N/N=C/c1cccc(F)c1 next? 1.0

Note, next up: CCCc1cn(CC[C@H]2CC[C@@H](NS(=O)(=O)c3ccccc3Cl)[C@@H](CO)O2)nn1 0.0

Another compound: O=C(c1cccnc1)N1CC2(C1)[C@@H](c1ccccc1)[C@H](CO)N2C(=O)C1CCC1 0.0

What do you get for CC(C)NC(=O)N(C)C[C@H]1OCCCC[C@H](C)Oc2ccc(NC(=O)Nc3ccc(C(F)(F)F)cc3)cc2C(=O)N([C@H](C)CO)C[C@@H]1C ? 1.0

Also, O=C(CC(=O)N/N=C\c1ccc(F)cc1)NCCc1ccccc1 please. 0.0

And what about the compound C[C@@H]1CCCCO[C@H](CN(C)C(=O)C2CCCCC2)[C@@H](C)CN([C@@H](C)CO)C(=O)c2cc(NC(=O)Nc3ccccc3)ccc2O1 ? 1.0

Same again, this time with OC[C@@H]1CN(Cc2ccc(F)cc2)C[C@H](n2cnc3c(NC4CCCC4)ncnc32)O1 0.0

Also CO[C@@H]1CN(C)C(=O)c2cc(NS(C)(=O)=O)ccc2OC[C@H](C)N(C(=O)C2CC2)C[C@@H]1C , if possible. 0.0

Would you kindly repeat that for C/C=C/c1cnc2c(c1)C(=O)N([C@@H](C)CO)C[C@@H](C)[C@@H](CN(C)C(=O)C1CCOCC1)O2 ? 0.0

// next record CN1CCN(c2ccc(NC(=O)c3ccc4c(c3)[nH]c(=O)n4Cc3ccc(F)cc3)cc2)CC1 0.0

Again, but for C[C@H](CO)N1C[C@H](C)[C@@H](CN(C)C(=O)NC2CCCCC2)Oc2c(NC(=O)Nc3ccc(F)cc3)cccc2C1=O 0.0

COc1ccc(NC(=O)N(C)C[C@H]2Oc3ccc(NC(=O)Cc4cn(C)c5ccccc45)cc3CC(=O)N([C@@H](C)CO)C[C@H]2C)cc1 ? 0.0

Another compound to look at: COc1ccc(CN(C)C[C@H]2OCCCC[C@@H](C)Oc3ccc(NC(=O)Nc4cccc5ccccc45)cc3C(=O)N([C@H](C)CO)C[C@@H]2C)cc1 0.0

Likewise for COc1ccc2[nH]c3c(C)c4cc[n+](C)cc4c(C)c3c2c1 ? 1.0

Param item: COc1cc(OC)cc(C(=O)N[C@H](C(=O)Nc2nc3ccccc3[nH]2)C(C)C)c1 1.0

Next: O=C(N[C@H]1CC[C@@H](CCn2cc(Cc3ccccc3)nn2)O[C@H]1CO)c1cnccn1 0.0

Then COc1cc(OC)cc(C(=O)N[C@H](C(=O)OCC(=O)NC(C)c2ccccc2)C(C)C)c1 (stereo partly drawn) ? 0.0

Try the compound Cc1ccc(C)c(Cn2nnc3c(=O)[nH]c(C(=O)Nc4ccc(F)cc4)nc32)c1 0.0

Would you kindly repeat that for Cc1cc2occ(CC(=O)NNC(=O)c3ccccc3F)c2cc1C ? 0.0

Another: Cc1cccc(NC(=O)CCN2CC(C)CC(C)C2)c1 (stereo not drawn) 0.0

CCCN1C[C@@H](C)[C@@H](OC)CN(C)C(=O)c2cc(NC(=O)Nc3cccc(F)c3)ccc2OC[C@@H]1C , same question. 0.0

Continue with Cc1ccc(COc2ccc(/C=N/NC(=O)CN3CCCCC3)cc2)cc1 0.0

Reference for the values: PubChem BioAssay AID652154
